target.system: human PDE10A2 (Homo sapiens (Human))
Sequence (Q9Y233 267-1055): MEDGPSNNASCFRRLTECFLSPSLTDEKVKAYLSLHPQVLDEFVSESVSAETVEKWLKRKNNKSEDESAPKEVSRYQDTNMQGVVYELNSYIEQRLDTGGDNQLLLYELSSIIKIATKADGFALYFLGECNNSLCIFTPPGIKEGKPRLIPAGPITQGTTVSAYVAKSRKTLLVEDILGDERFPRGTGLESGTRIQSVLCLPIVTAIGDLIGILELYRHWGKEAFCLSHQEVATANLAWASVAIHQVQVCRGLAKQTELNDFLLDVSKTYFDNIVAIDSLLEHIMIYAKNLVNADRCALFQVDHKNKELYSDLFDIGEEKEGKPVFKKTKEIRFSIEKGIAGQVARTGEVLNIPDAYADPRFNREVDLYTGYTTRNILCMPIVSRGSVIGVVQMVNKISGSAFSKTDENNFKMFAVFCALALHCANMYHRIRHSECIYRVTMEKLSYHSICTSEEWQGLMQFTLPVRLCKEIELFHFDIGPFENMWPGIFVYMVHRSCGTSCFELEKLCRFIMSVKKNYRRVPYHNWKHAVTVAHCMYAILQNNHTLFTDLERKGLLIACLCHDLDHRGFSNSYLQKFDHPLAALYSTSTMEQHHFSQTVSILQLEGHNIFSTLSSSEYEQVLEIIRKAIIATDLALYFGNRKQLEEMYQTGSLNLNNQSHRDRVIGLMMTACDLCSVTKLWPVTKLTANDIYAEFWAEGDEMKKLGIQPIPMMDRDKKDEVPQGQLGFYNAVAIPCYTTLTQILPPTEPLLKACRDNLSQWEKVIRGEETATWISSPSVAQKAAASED
recorded.metric: Ki (nM)

# compound, Ki / nM
measured = [
    ("Cc1nc([C@H]2C[C@@H]2c2nc3ccccc3n2CCF)cc(-n2nc(C)nc2C)n1 [Cpd 103]", 2.9),
    ("Cc1nc(C2CC2c2nc3ccccc3n2C)cc(-n2nc(C)nc2C)n1 (centres unmarked) [Cpd 36]", 3.5),
    ("Cc1nc([C@H]2C[C@@H]2c2nc3ccccc3n2C)cc(-n2nc(C)nc2C2CCCCC2)n1 (stereo in doubt) [Cpd 79]", 2.5),
    ("Cc1nc(C)n(-c2cc([C@@H]3C[C@H]3c3nc4ccccc4n3C)nc(C(C)(C)O)n2)n1 [Cpd 131]", 0.88),
]

[1] CNc1nc([C@@H]2C[C@H]2c2nc3ccccc3n2C)cc(-n2nc(C)nc2C)n1 [Cpd 62]
[2] Cc1nc(C)n(-c2cc([C@@H]3C[C@H]3c3nc4ccccc4n3C)nc(N3CCC[C@H]3C)n2)n1 [Cpd 133]
[3] CCc1nc(CC)n(-c2cc([C@@H]3C[C@H]3c3nc4ccccc4n3C)nc(C)n2)n1 [Cpd 106]
[4] COCc1ncnn1-c1cc([C@@H]2C[C@H]2c2nc3ccccc3n2C)nc(C)n1 [Cpd 94]
Exercise: Ascending by Ki, please: list the compounds accordingly. Please, when replying, give the labels in the order that was requested.
Key: 2, 1, 3, 4

* * *

System: human PDE10A2 (Homo sapiens (Human)) | Read-out: pKi
pKi: −log10 of the molar value.
recorded.metric: pKi

A selection of reference data follows.
# compound, target.system, measured.number
records = [
    ("COCc1nc(C)nn1-c1cc([C@H]2C[C@@H]2c2nc3ccccc3n2C)nc(C)n1 (stereo in doubt)", "human PDE10A2 (Homo sapiens (Human))", 8.85),
    ("COc1ccc(Cc2nc(C)nn2-c2cc(C3CC3c3nc4ccccc4[nH]3)nc(C)n2)cc1OC (centres unmarked)", "human PDE10A2 (Homo sapiens (Human))", 11.30),
    ("Cc1nc([C@H]2C[C@@H]2c2nc3ccccc3n2C)cc(-n2nc(C)nc2C2CC2)n1 (stereo in doubt)", "human PDE10A2 (Homo sapiens (Human))", 8.54),
]

[A] Cc1nc(C)n(-c2cc([C@@H]3C[C@H]3c3nc4ccccc4n3C)nc(OCCO)n2)n1
[B] Cc1nc([C@@H]2C[C@H]2c2nc3ccccc3n2Cc2ccncc2)cc(-n2nc(C)nc2C)n1 (stereo in doubt)
Exercise: Select one: A or B . Criterion: greater recorded pKi. API: response body contains the label of the selected item.
Key: A

[a] COC[C@@H](C)Oc1nc([C@@H]2C[C@H]2c2nc3ccccc3n2C)cc(-n2nc(C)nc2C)n1
[b] COc1ccc(Cc2nc(C)nn2-c2cc(/C=C/c3ccccn3)nc(C)n2)cc1OC
Exercise: Which value of pKi is numerically greater: that of a or that of b ? Lab note: record the label of whichever item you select.
Key: b

[A] Cc1nc(C)n(-c2cc([C@H]3C[C@@H]3c3nc4ccccc4n3C)nc(C(N)=O)n2)n1 (relative stereo)
[B] Cc1nc([C@@H]2C[C@H]2c2nc3ccccc3n2C)cc(-n2nc(C)nc2C2CCN(C)CC2)n1
Exercise: Of A and B , whose reported pKi is numerically smaller? In your reply, give the label of the chosen option.
Key: B
